- TGT: PI3K-δ kinase (p110δ/p85α) (Homo sapiens)
- Construct: purchased Millipore 14-604M
- ASSAY COMMENT: Determination of PI3K kinase activity (ADP Transcreener, fluorescence polarization)
- Assay type: biochemical
- RECORDED CONDITIONS: Table 1; ATP 10 μM; read-out: PI3K-δ/nM (IC50 of inhibitory activity against PI3K kinase)
MEASURED PROPERTY: IC50 (nM)
Write down the numeric answer in nM and omit the unit.

# count of solved cases: 3
{"STRUCTURE": "CCS(=O)(=O)C1(c2cc(-c3cnc(N)cc3F)nc(N3CCOCC3)n2)CC1", "IC50, nM": 228}
{"STRUCTURE": "CC(C)S(=O)(=O)C1(c2cc(-c3cnc(N)cc3F)nc(N3CCOCC3)n2)CC1", "IC50, nM": 397}
{"STRUCTURE": "Nc1cc(C(F)(F)F)c(-c2cc(C3(S(=O)(=O)c4cccc(F)c4)CC3)nc(N3CCOCC3)n2)cn1", "IC50, nM": 62}

Then there is this compound:
Req: Complete the entry with IC50 for "C[C@H]1COCCN1c1nc(-c2cnc(N)cc2C(F)(F)F)cc(C2(S(C)(=O)=O)CCCC2)n1"
Resp: 324

====

- TGT: PI3K-γ kinase (p110γ) (Homo sapiens, UniProt P48736)
- Construct: purchased Invitrogen PV4786
- Sequence (P48736 whole entry): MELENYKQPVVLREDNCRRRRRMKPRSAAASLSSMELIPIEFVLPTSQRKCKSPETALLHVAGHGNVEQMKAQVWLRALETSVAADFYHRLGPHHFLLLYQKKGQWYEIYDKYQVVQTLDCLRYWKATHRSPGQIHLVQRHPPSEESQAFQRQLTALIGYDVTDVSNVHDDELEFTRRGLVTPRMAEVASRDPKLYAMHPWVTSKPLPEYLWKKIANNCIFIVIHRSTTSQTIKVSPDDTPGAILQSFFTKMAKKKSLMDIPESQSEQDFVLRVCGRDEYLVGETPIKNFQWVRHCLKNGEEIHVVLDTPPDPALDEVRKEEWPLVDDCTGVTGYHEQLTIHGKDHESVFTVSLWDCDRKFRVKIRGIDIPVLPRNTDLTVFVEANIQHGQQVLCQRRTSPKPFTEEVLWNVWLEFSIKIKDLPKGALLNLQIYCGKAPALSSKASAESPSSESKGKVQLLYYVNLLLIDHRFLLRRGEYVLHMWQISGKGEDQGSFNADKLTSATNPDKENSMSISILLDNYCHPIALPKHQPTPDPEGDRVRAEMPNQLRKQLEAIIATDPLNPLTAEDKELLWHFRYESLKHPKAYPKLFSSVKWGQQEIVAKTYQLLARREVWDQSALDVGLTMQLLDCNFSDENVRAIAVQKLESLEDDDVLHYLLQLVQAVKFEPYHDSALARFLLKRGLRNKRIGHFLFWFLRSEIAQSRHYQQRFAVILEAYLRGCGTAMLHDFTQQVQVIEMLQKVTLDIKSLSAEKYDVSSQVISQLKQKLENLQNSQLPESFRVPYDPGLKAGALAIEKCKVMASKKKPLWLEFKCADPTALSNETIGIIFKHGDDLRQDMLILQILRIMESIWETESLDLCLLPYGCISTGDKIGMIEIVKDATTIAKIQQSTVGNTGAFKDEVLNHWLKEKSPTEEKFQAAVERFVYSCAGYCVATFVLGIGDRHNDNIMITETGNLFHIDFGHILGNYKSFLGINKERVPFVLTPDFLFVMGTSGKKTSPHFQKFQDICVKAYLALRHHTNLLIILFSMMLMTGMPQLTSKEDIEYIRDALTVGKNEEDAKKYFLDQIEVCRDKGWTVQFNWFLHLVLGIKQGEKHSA
- ASSAY COMMENT: Determination of PI3K kinase activity (ADP Transcreener, fluorescence polarization)
- Assay type: biochemical
- RECORDED CONDITIONS: Table 1; ATP 10 μM; read-out: PI3K-γ/nM (IC50 of inhibitory activity against PI3K kinase)
Measured IC50 of individual entries
Report the value in nM with no unit label.

{"MOLECULE": "Nc1cc(Cl)c(-c2cc(C3(S(=O)(=O)C4CC4)CC3)nc(N3CCOCC3)n2)cn1 [Compound S-87]", "IC50 / nM": 134}

# input for lookup
Req: Answer with the recorded IC50 for the molecule listed here: COC(C)(C)c1cc(-c2cnc(N)cc2C(F)(F)F)nc(N2CCOCC2)n1 [Compound S-71]
Resp: 1030

====

- TGT: PI3K-δ kinase (p110δ/p85α) (Homo sapiens, UniProt O00329)
- Construct: purchased Millipore 14-604M
- Sequence (O00329 whole entry): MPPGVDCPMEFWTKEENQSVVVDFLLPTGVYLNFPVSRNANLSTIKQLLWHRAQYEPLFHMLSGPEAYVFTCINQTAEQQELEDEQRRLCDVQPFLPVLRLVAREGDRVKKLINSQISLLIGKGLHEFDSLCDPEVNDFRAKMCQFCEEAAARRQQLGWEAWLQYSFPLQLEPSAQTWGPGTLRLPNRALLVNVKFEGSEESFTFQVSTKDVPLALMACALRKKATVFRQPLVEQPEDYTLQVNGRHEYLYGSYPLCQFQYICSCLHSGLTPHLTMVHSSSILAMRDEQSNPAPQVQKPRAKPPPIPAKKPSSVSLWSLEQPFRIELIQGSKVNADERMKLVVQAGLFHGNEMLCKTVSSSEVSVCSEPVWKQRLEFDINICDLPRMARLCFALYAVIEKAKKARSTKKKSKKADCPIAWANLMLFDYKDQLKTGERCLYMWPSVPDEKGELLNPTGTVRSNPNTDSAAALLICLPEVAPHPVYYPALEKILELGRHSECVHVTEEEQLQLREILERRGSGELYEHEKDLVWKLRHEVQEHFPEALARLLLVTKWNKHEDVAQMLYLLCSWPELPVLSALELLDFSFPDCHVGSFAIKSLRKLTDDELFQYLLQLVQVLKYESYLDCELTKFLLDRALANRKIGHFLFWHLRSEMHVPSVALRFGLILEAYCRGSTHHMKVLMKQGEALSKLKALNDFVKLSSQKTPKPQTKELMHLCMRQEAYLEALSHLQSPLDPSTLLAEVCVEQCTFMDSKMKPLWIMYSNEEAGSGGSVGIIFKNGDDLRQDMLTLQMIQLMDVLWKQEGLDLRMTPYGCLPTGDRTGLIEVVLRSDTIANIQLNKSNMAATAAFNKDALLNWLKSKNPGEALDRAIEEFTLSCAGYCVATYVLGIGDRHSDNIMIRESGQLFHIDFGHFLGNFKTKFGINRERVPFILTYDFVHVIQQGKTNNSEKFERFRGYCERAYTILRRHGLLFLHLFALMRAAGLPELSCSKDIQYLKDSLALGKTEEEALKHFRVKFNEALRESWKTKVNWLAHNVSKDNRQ
- Sequence (P27986 whole entry partner): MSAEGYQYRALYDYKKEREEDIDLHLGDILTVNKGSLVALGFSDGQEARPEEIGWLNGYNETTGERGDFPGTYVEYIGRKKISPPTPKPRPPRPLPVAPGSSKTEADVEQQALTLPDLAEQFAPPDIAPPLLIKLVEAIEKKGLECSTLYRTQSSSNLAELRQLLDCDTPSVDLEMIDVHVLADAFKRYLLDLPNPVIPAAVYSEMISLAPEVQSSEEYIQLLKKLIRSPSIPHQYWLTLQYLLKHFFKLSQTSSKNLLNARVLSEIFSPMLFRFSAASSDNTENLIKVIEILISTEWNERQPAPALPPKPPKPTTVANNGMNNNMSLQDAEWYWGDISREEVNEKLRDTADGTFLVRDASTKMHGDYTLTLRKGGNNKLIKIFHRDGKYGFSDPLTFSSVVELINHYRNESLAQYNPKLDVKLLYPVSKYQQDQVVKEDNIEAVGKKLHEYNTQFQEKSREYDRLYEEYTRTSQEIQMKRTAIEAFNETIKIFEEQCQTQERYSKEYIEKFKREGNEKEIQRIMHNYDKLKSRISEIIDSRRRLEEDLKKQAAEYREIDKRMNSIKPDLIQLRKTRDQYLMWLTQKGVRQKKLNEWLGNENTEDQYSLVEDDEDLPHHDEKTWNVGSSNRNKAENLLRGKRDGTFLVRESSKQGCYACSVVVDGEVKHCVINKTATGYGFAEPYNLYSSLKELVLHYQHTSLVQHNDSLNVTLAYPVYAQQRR
- ASSAY COMMENT: Determination of PI3K kinase activity (ADP Transcreener, fluorescence polarization)
- Format: biochemical
- RECORDED CONDITIONS: Table 1; ATP 10 μM; read-out: PI3K-δ/nM (IC50 of inhibitory activity against PI3K kinase)
Decision: IC50 beneath 200 nM gives 1; IC50 meeting or exceeding 200 nM gives -1.

// below: answered compounds
{"COMPOUND": "C[C@H]1COCCN1c1nc(-c2cnc(N)cc2F)cc(C(C)(C)S(C)(=O)=O)n1", "LABEL CLASS": 1}
{"COMPOUND": "COC(C)(C)c1cc(-c2cnc(N)cc2Cl)nc(N2CCOCC2)n1", "LABEL CLASS": -1}
{"COMPOUND": "CS(=O)(=O)C1(c2cc(-c3cnc(N)cc3F)nc(N3CCOCC3)n2)CC1", "LABEL CLASS": 1}

Req: Find out if reported IC50 for "CC(C)(c1cc(-c2cnc(N)cc2C(F)(F)F)nc(N2CCOCC2)n1)S(C)(=O)=O" is less than 200 nM
Resp: -1

====

Entries and their IC50 values follow.
- TGT: PI3K-δ kinase (p110δ/p85α) (Homo sapiens)
- Construct: purchased Millipore 14-604M
- ASSAY COMMENT: Determination of PI3K kinase activity (ADP Transcreener, fluorescence polarization)
- Type: biochemical
- RECORDED CONDITIONS: Table 1; ATP 10 μM; read-out: PI3K-δ/nM (IC50 of inhibitory activity against PI3K kinase)
Answer with a number only, understood to be in nM.

Before answering, review these 2 worked examples.
{"COMPOUND": "C[C@@H]1COCCN1c1nc(-c2cnc(N)cc2Cl)cc(C(C)(C)S(C)(=O)=O)n1", "MEASURED PROPERTY": "IC50", "UNITS": "nM", "VAL": 59}
{"COMPOUND": "COC(C)(C)c1cc(-c2cnc(N)cc2Cl)nc(N2CCOC[C@@H]2C)n1", "MEASURED PROPERTY": "IC50", "UNITS": "nM", "VAL": 810}

Req: Look up and report IC50, with PI3K-δ kinase (p110δ/p85α) (Homo sapiens) as system, for "CCS(=O)(=O)C1(c2cc(-c3cnc(N)cc3C(F)(F)F)nc(N3CCOCC3)n2)CC1"
Resp: 78

Req: Provide IC50, tested on PI3K-δ kinase (p110δ/p85α) (Homo sapiens), for "CCS(=O)(=O)C1(c2cc(-c3cnc(N)cc3C(F)(F)F)nc(N3CCOC[C@@H]3C)n2)CCC1" .
Resp: 62

Req: State measured IC50 of the compound "CCS(=O)(=O)C1(c2cc(-c3cnc(N)cc3C(F)(F)F)nc(N3CCOCC3)n2)CCC1" with PI3K-δ kinase (p110δ/p85α) (Homo sapiens).
Resp: 85

Req: Quote PI3K-δ kinase (p110δ/p85α) (Homo sapiens) IC50 for entry CS(=O)(=O)C(F)c1cc(-c2cnc(N)cc2C(F)(F)F)nc(N2CCOCC2)n1 (centres unmarked) .
Resp: 336

Req: Quote IC50 with test system PI3K-δ kinase (p110δ/p85α) (Homo sapiens) for "CC(C)(c1cc(-c2cnc(N)cc2C(F)(F)F)nc(N2CCOCC2)n1)S(=O)(=O)c1ccccc1"
Resp: 214

Req: Tell me IC50 of "CC(C)(c1cc(-c2cnc(N)cc2Cl)nc(N2CCOCC2)n1)S(C)(=O)=O" when tested on PI3K-δ kinase (p110δ/p85α) (Homo sapiens).
Resp: 212

Req: Report value: IC50, system: PI3K-δ kinase (p110δ/p85α) (Homo sapiens), compound: "Nc1cc(Cl)c(-c2cc(C3(S(=O)(=O)c4ccccc4F)CC3)nc(N3CCOCC3)n2)cn1"
Resp: 46

Req: Lab note: record IC50 of "CS(=O)(=O)C1(c2cc(-c3cnc(N)cc3C(F)(F)F)nc(N3CCOCC3)n2)CCC1" tested on PI3K-δ kinase (p110δ/p85α) (Homo sapiens).
Resp: 184

Req: Give the observed IC50 of "C[C@H]1COCCN1c1nc(-c2cnc(N)nc2C(F)(F)F)cc(C2(S(C)(=O)=O)CCC2)n1" for PI3K-δ kinase (p110δ/p85α) (Homo sapiens).
Resp: 12
